Below: a set of entries, each annotated with reported pIC50.
# System Tested: Hypoxia-inducible factor 1-alpha (Homo sapiens)
# Procedure Details: Inhibition of HIF-1alpha in human HRE-A549 cells pre-incubated for 1 hr before exposure to hypoxia for 24 hrs by HRE-luciferase reporter gene assay
pIC50: −log10 of the molar value.
Parameter: pIC50

Compound	System Tested	Relational Operator	Result
COc1ccc(C(=O)C(C)c2ccc(OC)c(OC)c2)c(OC)c1 (racemic)	Hypoxia-inducible factor 1-alpha (Homo sapiens)	<	4.82
COc1ccc(C(C)C(=O)c2ccc(O)cc2OC)cc1OC (racemic)	Hypoxia-inducible factor 1-alpha (Homo sapiens)	<	4.82
COc1ccccc1CC(=O)c1ccc2c(c1OC)C=CC(C)(C)O2	Hypoxia-inducible factor 1-alpha (Homo sapiens)	=	5.49
CCN(C(=O)c1ccc2c(c1OC)C=CC(C)(C)O2)c1ccc(OC)c(OC)c1	Hypoxia-inducible factor 1-alpha (Homo sapiens)	=	5.28
COc1ccc(NC(=O)c2ccc3c(c2OC)C=CC(C)(C)O3)cc1OC	Hypoxia-inducible factor 1-alpha (Homo sapiens)	=	5.69
COc1ccc(C(C)C(=O)c2ccc3c(c2OC)C=CC(C)(C)O3)cc1OC (racemic)	Hypoxia-inducible factor 1-alpha (Homo sapiens)	=	5.87
COc1ccc(CC(=O)c2ccc3c(c2OC)C=CC(C)(C)O3)cc1	Hypoxia-inducible factor 1-alpha (Homo sapiens)	=	5.21
COc1c(C(=O)Cc2cccc(F)c2)ccc2c1C=CC(C)(C)O2	Hypoxia-inducible factor 1-alpha (Homo sapiens)	=	6.44
COc1ccc(CC(=O)c2ccc3c(c2OC)C=CC(C)(C)O3)cc1OC	Hypoxia-inducible factor 1-alpha (Homo sapiens)	=	5.67
COc1c(C(=O)Cc2ccccc2F)ccc2c1C=CC(C)(C)O2	Hypoxia-inducible factor 1-alpha (Homo sapiens)	=	7.00
COc1ccc(CC(O)c2ccc3c(c2OC)C=CC(C)(C)O3)cc1OC (stereo unspecified)	Hypoxia-inducible factor 1-alpha (Homo sapiens)	=	5.05
COc1ccc(C(C)C(=O)c2ccc(N3CCCC3)cc2)cc1OC (racemic)	Hypoxia-inducible factor 1-alpha (Homo sapiens)	=	5.58
COc1c(C(=O)Cc2ccc(F)c(F)c2)ccc2c1C=CC(C)(C)O2	Hypoxia-inducible factor 1-alpha (Homo sapiens)	=	5.90
COc1c(C(=O)Cc2ccccc2)ccc2c1C=CC(C)(C)O2	Hypoxia-inducible factor 1-alpha (Homo sapiens)	=	6.06
COc1c(C(=O)Cc2ccc3c(c2)OCCO3)ccc2c1C=CC(C)(C)O2	Hypoxia-inducible factor 1-alpha (Homo sapiens)	=	5.88
COc1ccc(N(Cc2ccccc2)C(=O)c2ccc3c(c2OC)C=CC(C)(C)O3)cc1OC	Hypoxia-inducible factor 1-alpha (Homo sapiens)	=	4.97
COc1ccc(CC(OC(C)=O)c2ccc3c(c2OC)C=CC(C)(C)O3)cc1OC (stereo unspecified)	Hypoxia-inducible factor 1-alpha (Homo sapiens)	=	5.52
COc1c(C(=O)Cc2ccc(F)cc2)ccc2c1C=CC(C)(C)O2	Hypoxia-inducible factor 1-alpha (Homo sapiens)	=	5.99
COc1ccc(C(C)C(=O)c2ccc(N(C)C)cc2OC)cc1OC (racemic)	Hypoxia-inducible factor 1-alpha (Homo sapiens)	<	4.82
COc1ccc(C(F)C(=O)c2ccc3c(c2OC)C=CC(C)(C)O3)cc1OC (stereo unspecified)	Hypoxia-inducible factor 1-alpha (Homo sapiens)	=	5.20
COc1ccc(C(Cc2ccccc2)C(=O)c2ccc3c(c2OC)C=CC(C)(C)O3)cc1OC (stereo unspecified)	Hypoxia-inducible factor 1-alpha (Homo sapiens)	=	4.92

###

# System Tested: Hypoxia-inducible factor 1-alpha (Homo sapiens, UniProt Q16665)
# Sequence (Q16665 whole entry): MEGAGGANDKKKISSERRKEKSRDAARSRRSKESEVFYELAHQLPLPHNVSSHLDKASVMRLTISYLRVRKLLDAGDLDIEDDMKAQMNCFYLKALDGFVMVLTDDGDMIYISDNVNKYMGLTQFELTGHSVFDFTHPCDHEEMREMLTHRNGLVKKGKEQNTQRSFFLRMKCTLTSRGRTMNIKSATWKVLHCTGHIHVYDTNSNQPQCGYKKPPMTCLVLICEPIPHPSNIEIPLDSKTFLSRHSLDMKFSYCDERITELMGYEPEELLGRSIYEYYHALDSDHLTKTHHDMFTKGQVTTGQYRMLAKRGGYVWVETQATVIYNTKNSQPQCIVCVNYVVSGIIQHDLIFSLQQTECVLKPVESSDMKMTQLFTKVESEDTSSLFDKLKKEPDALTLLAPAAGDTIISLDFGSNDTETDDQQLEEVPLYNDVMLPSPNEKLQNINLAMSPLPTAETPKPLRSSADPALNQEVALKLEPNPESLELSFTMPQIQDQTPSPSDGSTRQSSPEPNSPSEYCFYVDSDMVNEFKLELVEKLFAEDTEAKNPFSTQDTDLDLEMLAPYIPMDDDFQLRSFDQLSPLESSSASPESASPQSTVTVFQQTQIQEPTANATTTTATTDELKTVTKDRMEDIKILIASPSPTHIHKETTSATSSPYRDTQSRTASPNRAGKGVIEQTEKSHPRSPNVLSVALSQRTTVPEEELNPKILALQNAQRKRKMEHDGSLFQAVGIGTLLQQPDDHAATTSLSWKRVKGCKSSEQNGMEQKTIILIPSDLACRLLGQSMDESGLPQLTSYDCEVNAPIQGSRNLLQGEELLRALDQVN
# Procedure Details: Inhibition of HIF-1alpha in human HRE-A549 cells pre-incubated for 1 hr before exposure to hypoxia for 24 hrs by HRE-luciferase reporter gene assay
# Assay type: cell-based
Entries and their log10 of IC50 values follow.
Parameter: log10 of IC50 (log10 of the value in nM)

Compound	System Tested	log10 of IC50
COc1c(C(=O)Cc2ccccc2O)ccc2c1C=CC(C)(C)O2	Hypoxia-inducible factor 1-alpha (Homo sapiens, UniProt Q16665)	2.97
COc1ccc(N(C)C(=O)c2ccc3c(c2OC)C=CC(C)(C)O3)cc1OC	Hypoxia-inducible factor 1-alpha (Homo sapiens, UniProt Q16665)	3.50
COc1c(C(=O)Cc2cccc(O)c2)ccc2c1C=CC(C)(C)O2	Hypoxia-inducible factor 1-alpha (Homo sapiens, UniProt Q16665)	3.16
COc1c(C(=O)Cc2ccc(Cl)c(Cl)c2)ccc2c1C=CC(C)(C)O2	Hypoxia-inducible factor 1-alpha (Homo sapiens, UniProt Q16665)	3.46
COc1c(C(=O)Cc2ccc3c(c2)OCO3)ccc2c1C=CC(C)(C)O2	Hypoxia-inducible factor 1-alpha (Homo sapiens, UniProt Q16665)	3.53
COc1cccc(CC(=O)c2ccc3c(c2OC)C=CC(C)(C)O3)c1	Hypoxia-inducible factor 1-alpha (Homo sapiens, UniProt Q16665)	2.91
C=CCC(C(=O)c1ccc2c(c1OC)C=CC(C)(C)O2)c1ccc(OC)c(OC)c1 (stereo not drawn)	Hypoxia-inducible factor 1-alpha (Homo sapiens, UniProt Q16665)	3.93
COc1c(C(=O)Cc2ccc(O)cc2)ccc2c1C=CC(C)(C)O2	Hypoxia-inducible factor 1-alpha (Homo sapiens, UniProt Q16665)	2.90
